# System: gene editing with Cas9
# assayName: Screen of 322 new SSAP proteins, gene editing activity with Cas9 (Table 5)
# Assay type: cell-based
# testContext: normalized
metricName: Cas9 with SSAP activity (normalized)
Answer with the value's number alone.

molecule | Cas9 with SSAP activity (normalized)
SSAP_134: SEQ ID NO: 303; Andreesenia angusta (protein, listed as Andreesenia angusta) SNLKNQLANKAGGTATKKQPQTMQDWIKVMEPQIKKALPSVITAERFTRMALTAISTNPKLAECTPESFMGALMNAAQLGLEPNTPLGQAYLIPYGKSVQFQVGYKGLMELAQRSGQFKSIYAHTVYENDEFEVEYGLTQNIVHKPNFDDRGKPIGFYAVYKLTNGGENFVFMTQREVEEFGKAKSKTFNNGPWKTDFEAMAKKTVLKQLLKYAPIKVEFQREIAQDATIKTEIAEDMTEVPEEMVEAEYEVVEQNTMAEDADLKGTPFETK | −1.104

Turning to the following molecule.
Request: Which Cas9 with SSAP activity (normalized) value belongs to SSAP_155: SEQ ID NO: 324; Staphylococcus nepalensis (protein, listed as Staphylococcus nepalensis) ATQNQFKNQLTQKKENNNQPQQKAVGPKQEISNLLDRMAPQIQKALPQHMSAERMARIAMTAVSSTPKLLECDPKSLIGALMQSSQIGLEPNTNLGQAYLIPYGKEVQLQVSYLGMIELANRSKQYKAIYAHEVYPEDYFEYQYGLQKDLIHKPADNPQSEPIGYYAVYHLLNGGYDFVYWSKAKIDDHARQFSKAVQKGWQSPWKTNFNAMAKKTVLKDLLKFAPKSIEMNNAVSSDSKAQQIDDDGNIIDVTDYSQVNDEPEQLQEGQ ?
Result: −0.908
